Molecular target: T1, 4H3601-bH
T1 chain: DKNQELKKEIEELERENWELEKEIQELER
Assay: two-hybrid library CCNG1;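 further: natural log of median RNA to DNA barcode read ratio; higher means stronger binding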
Threshold 0: interaction score strictly smaller gives True, otherwise False.

1. DKNQELKKEIEELEREIWELEKKNQELKR [4H3592-bH]    True
2. DENQELEKEIEELERKIWELKKKNQELKR [4H1072-bH]    False
3. DENQELEKKIEELKRKNWELKKKIQELKR [4H1406-bH]    False
4. DKNQELKKEIEELERENWELEKEIQELER [4H3601-bH]    True

Lookup: Please let me know if DENQELEKKIEELKRKIWELKKENQELER [4H1387-bH] shows interaction score below 0.
Found: True
